- Tested on: LC-2-ad
- MEASUREMENT_DESCRIPTION: relative viability (nuclei count vs DMSO), 5 days (fraction); higher = more cells survive
- SETUP_CONDITIONS: first compound 0.1265 µM
Entries annotated with measured relative viability

{"COMPOUND": "COc1cc(N2CCC(C(N)=O)CC2)ccc1Nc1nc(N)c(Cl)c(Nc2ccccc2S(=O)(=O)C(C)C)n1 [HG-5-88-01] + CC(C)C[C@H](NC(=O)[C@H](Cc1ccccc1)NC(=O)c1cnccn1)B(O)O [Bortezomib] (partner 0.002 µM)", "SYSTEM_UNDER_TEST": "LC-2-ad", "relative viability": 1.04}
{"COMPOUND": "COc1cc(N2CCC(C(N)=O)CC2)ccc1Nc1nc(N)c(Cl)c(Nc2ccccc2S(=O)(=O)C(C)C)n1 [HG-5-88-01] + O=C(CCCCCCC(=O)Nc1ccccc1)NO [Vorinostat] (partner 1 µM)", "SYSTEM_UNDER_TEST": "LC-2-ad", "relative viability": 0.75}
{"COMPOUND": "C[C@@H]1CN(CC(=O)Nc2ccc3c(c2)Cc2cccc(-c4cc(=O)cc(N5CCOCC5)o4)c2S3)C[C@H](C)O1 + CC(C)C[C@H](NC(=O)[C@H](Cc1ccccc1)NC(=O)c1cnccn1)B(O)O [Bortezomib] (partner 0.002 µM)", "SYSTEM_UNDER_TEST": "LC-2-ad", "relative viability": 0.981}

Below: the item to evaluate.
Query: Identify relative viability associated with the compound Clc1ccc(Nc2nnc(Cc3ccncc3)c3ccccc23)cc1 [Vatalanib] + Cc1cc(Nc2cc(N3CCN(C)CC3)nc(Sc3ccc(NC(=O)C4CC4)cc3)n2)n[nH]1 [Tozasertib] (partner 0.1 µM)
Response: 0.385

---

- Tested on: LCLC-103H
- MEASUREMENT_DESCRIPTION: relative viability (nuclei count vs DMSO), 5 days (fraction); higher = more cells survive
- SETUP_CONDITIONS: first compound 0.4 µM
Entries annotated with measured relative viability

{"COMPOUND": "Clc1ccc(Nc2nnc(Cc3ccncc3)c3ccccc23)cc1 [Vatalanib] + C[C@]1(O)C[C@@H](c2nc(-c3ccc4ccc(-c5ccccc5)nc4c3)c3c(N)nccn32)C1 [Linsitinib] (partner 1 µM)", "relative viability": 1.24}

Below: the item to evaluate.
Query: Identify relative viability associated with the compound C[C@@H]1CN(CC(=O)Nc2ccc3c(c2)Cc2cccc(-c4cc(=O)cc(N5CCOCC5)o4)c2S3)C[C@H](C)O1 + Cc1nc(Nc2ncc(C(=O)Nc3c(C)cccc3Cl)s2)cc(N2CCN(CCO)CC2)n1 [Dasatinib] (partner 0.075 µM)
Response: 0.405

---

Entries annotated with measured relative viability
- Tested on: LC-2-ad
- MEASUREMENT_DESCRIPTION: relative viability (nuclei count vs DMSO), 5 days (fraction); higher = more cells survive
- SETUP_CONDITIONS: first compound 2.53 µM
Lab note: jot the number down without any unit.

Some solved entries appear below for comparison.
{"MOLECULE": "CCCCCCCCCCCC1=C(O)C(=O)C=C(O)C1=O [Embelin] + O=C(c1cc(Cc2n[nH]c(=O)c3ccccc23)ccc1F)N1CCN(C(=O)C2CC2)CC1 [Olaparib] (partner 8 µM)", "relative viability": 0.678}
{"MOLECULE": "CCCCCCCCCCCC1=C(O)C(=O)C=C(O)C1=O [Embelin] + Cc1nc(Nc2ncc(C(=O)Nc3c(C)cccc3Cl)s2)cc(N2CCN(CCO)CC2)n1 [Dasatinib] (partner 0.075 µM)", "relative viability": 0.823}
{"MOLECULE": "CCCCCCCCCCCC1=C(O)C(=O)C=C(O)C1=O [Embelin] + NC(=O)Nc1cc(-c2cccc(F)c2)sc1C(=O)N[C@H]1CCCNC1 [AZD7762] (partner 0.2 µM)", "relative viability": 0.916}

Query: Identify relative viability associated with the molecule CCCCCCCCCCCC1=C(O)C(=O)C=C(O)C1=O [Embelin] + CC(=O)Nc1cccc(-n2c(=O)n(C3CC3)c(=O)c3c(Nc4ccc(I)cc4F)n(C)c(=O)c(C)c32)c1 [Trametinib] (partner 0.02 µM)
Response: 0.966

Query: Identify relative viability associated with the molecule CCCCCCCCCCCC1=C(O)C(=O)C=C(O)C1=O [Embelin] + O=C(CCCCCCC(=O)Nc1ccccc1)NO [Vorinostat] (partner 1 µM)
Response: 0.716
